biological target: Human immunodeficiency virus type 1 reverse transcriptase (Human immunodeficiency virus 1)
# note: boundary value 200 nM maps to NO; IC50 below it maps to YES

Ask: A record lists CCN1c2ncc(COc3cc[n+]([O-])c(C)c3)cc2C(=O)N(C)c2ccc(Cl)nc21 . Is its IC50 below 200 nM?
Reply: YES

Ask: A record lists CCN1c2ncc(COc3cccnc3)cc2C(=O)N(C)c2ccc(Cl)nc21 . Is its IC50 below 200 nM?
Reply: YES

Ask: A record lists CCN1c2ncc(C[S+]([O-])c3ccccc3)cc2C(=O)N(C)c2ccc(Cl)nc21 (stereo not given) . Is its IC50 below 200 nM?
Reply: YES

Ask: A record lists CCN1c2ncc(COc3ccnc(C(F)(F)F)c3)cc2C(=O)N(C)c2ccc(Cl)nc21 . Is its IC50 below 200 nM?
Reply: YES

Ask: A record lists CCN1c2ncc(CSc3ncccn3)cc2C(=O)N(C)c2ccc(Cl)nc21 . Is its IC50 below 200 nM?
Reply: YES

Ask: A record lists CCN1c2ncc(COc3ccc4[nH]ccc4c3)cc2C(=O)N(C)c2ccc(Cl)nc21 . Is its IC50 below 200 nM?
Reply: NO

Ask: A record lists CCN1c2ncc(COc3cccc4[nH]ccc34)cc2C(=O)N(C)c2ccc(Cl)nc21 . Is its IC50 below 200 nM?
Reply: NO

Ask: A record lists CCN1c2ncc(COc3ccc(C(=O)OC)cc3)cc2C(=O)N(C)c2ccc(Cl)nc21 . Is its IC50 below 200 nM?
Reply: NO

Ask: A record lists CCN1c2ncc(COc3cccc(N)c3)cc2C(=O)N(C)c2ccc(Cl)nc21 . Is its IC50 below 200 nM?
Reply: YES

Ask: A record lists CCN1c2ncc(COc3cccc(C(N)=O)c3)cc2C(=O)N(C)c2ccc(Cl)nc21 . Is its IC50 below 200 nM?
Reply: YES

Ask: A record lists CCN1c2ncc(COc3cc[n+]([O-])c(C(F)(F)F)c3)cc2C(=O)N(C)c2ccc(Cl)nc21 . Is its IC50 below 200 nM?
Reply: YES

Ask: A record lists CCN1c2ncc(COc3ccc(F)cc3)cc2C(=O)N(C)c2ccc(Cl)nc21 . Is its IC50 below 200 nM?
Reply: NO

Ask: A record lists CCN1c2ncc(COc3ccncc3)cc2C(=O)N(C)c2ccc(Cl)nc21 . Is its IC50 below 200 nM?
Reply: YES

Ask: A record lists CCN1c2ncc(CSc3ccccc3)cc2C(=O)N(C)c2ccc(Cl)nc21 . Is its IC50 below 200 nM?
Reply: YES

Ask: A record lists CCN1c2ncc(COc3cccc([N+](=O)[O-])c3)cc2C(=O)N(C)c2ccc(Cl)nc21 . Is its IC50 below 200 nM?
Reply: YES

Ask: A record lists CCN1c2ncc(CSc3ccncc3)cc2C(=O)N(C)c2ccc(Cl)nc21 . Is its IC50 below 200 nM?
Reply: YES

Ask: A record lists CCN1c2ncc(CS(=O)(=O)c3ccccc3)cc2C(=O)N(C)c2ccc(Cl)nc21 . Is its IC50 below 200 nM?
Reply: YES

Ask: A record lists CCN1c2ncc(CN(C)c3ccccc3)cc2C(=O)N(C)c2ccc(Cl)nc21 . Is its IC50 below 200 nM?
Reply: NO

Ask: A record lists CCN1c2ncc(COc3ccnc(C)c3)cc2C(=O)N(C)c2ccc(Cl)nc21 . Is its IC50 below 200 nM?
Reply: YES

Ask: A record lists CCN1c2ncc(CCc3ccccc3)cc2C(=O)N(C)c2ccc(Cl)nc21 . Is its IC50 below 200 nM?
Reply: YES
